Subject of test: T1, human high affinity trimeric IL-2 receptor (CD25/CD122/CD132) (human, UniProt P01589 22-272; P14784 27-551; P31785 23-369)
T1 sequence 1: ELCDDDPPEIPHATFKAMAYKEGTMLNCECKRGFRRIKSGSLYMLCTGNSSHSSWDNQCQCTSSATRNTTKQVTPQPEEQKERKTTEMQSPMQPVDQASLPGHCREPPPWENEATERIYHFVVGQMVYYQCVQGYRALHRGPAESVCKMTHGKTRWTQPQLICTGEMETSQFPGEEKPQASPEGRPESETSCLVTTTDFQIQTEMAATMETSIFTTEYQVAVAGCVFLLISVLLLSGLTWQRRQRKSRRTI
T1 sequence 2: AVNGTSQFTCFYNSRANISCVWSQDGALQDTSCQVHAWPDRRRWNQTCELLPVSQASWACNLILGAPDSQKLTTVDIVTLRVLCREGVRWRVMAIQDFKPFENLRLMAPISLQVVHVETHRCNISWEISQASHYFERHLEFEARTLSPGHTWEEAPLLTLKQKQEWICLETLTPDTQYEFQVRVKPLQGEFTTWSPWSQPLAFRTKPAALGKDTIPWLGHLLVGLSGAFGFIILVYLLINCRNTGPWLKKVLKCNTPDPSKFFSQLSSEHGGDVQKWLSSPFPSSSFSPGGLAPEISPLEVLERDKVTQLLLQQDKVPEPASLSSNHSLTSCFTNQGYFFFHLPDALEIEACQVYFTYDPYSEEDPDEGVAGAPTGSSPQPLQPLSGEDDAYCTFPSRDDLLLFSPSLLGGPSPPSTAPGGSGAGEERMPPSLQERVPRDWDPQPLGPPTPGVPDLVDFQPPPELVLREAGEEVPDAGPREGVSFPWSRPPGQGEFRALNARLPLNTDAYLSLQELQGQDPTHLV
T1 sequence 3: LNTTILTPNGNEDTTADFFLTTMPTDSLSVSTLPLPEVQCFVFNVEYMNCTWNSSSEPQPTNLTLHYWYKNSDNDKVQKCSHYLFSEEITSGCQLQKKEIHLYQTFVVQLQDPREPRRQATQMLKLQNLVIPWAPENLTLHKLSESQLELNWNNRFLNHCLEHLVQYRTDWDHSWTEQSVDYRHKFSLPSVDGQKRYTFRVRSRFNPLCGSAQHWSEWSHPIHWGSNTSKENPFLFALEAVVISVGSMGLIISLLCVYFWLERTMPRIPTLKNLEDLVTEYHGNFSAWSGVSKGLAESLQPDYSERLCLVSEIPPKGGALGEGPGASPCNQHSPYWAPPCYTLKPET
Assay notes: cell-based or functional assay
pSTAT5 ratio YT CD25/YT, dilution factor 2, lower table by entry:
Readout label: pSTAT5 ratio YT CD25/YT, dilution factor 2, lower table

Binder: RVH (ligand) cytokine: APTSSSTKKTQLQLEHLRLDLVMILNGINNYKNPKLTRMLTFKFYMPKKATELKHLQCLEEELKPLEEVLNLAQSKNFHLRPRDLISNINVIVLELKGSETTFMCEYADETATIVEFLNRWITFCHSIISTLT
Endpoint value: 0.9
--
Binder: RLH (ligand) cytokine: APTSSSTKKTQLQLEHLRLDLLMILNGINNYKNPKLTRMLTFKFYMPKKATELKHLQCLEEELKPLEEVLNLAQSKNFHLRPRDLISNINVIVLELKGSETTFMCEYADETATIVEFLNRWITFCHSIISTLT
Endpoint value: 0.8
